# Organism: Bos taurus
# protocol_description: Activation of actin-stimulated bovine cardiac myosin S1 fragment ATPase activity in sarcomere at 10 uM after 10 mins by spectrophotometric analysis relative to control
Entries and their Activity values follow.

smiles | Activity
c1ccc(CCCNc2nnc(-c3ccccc3)o2)cc1 | 50.5%
COc1ccc(CCc2nnc(CCCc3ccccc3)o2)cc1OC | 38.7%
NS(=O)(=O)c1ccc(-c2nnc(NCCCc3ccccc3)o2)cc1 | 33%
c1ccc(CCCc2nnc(CCc3ccccc3)o2)cc1 | 51%
c1ccc(CCCc2nnc(Cc3ccccc3)o2)cc1 | 62.9%
c1ccc(CCCc2nc(Cc3ccccc3)no2)cc1 | 66.3%
COC(=O)N1CCN(Cc2cccc(NC(=O)Nc3ccc(C)nc3)c2F)CC1 | 56.5%
c1ccc(CCCCc2nc(-c3ccccc3)no2)cc1 | 35.9%
c1ccc(CCCc2nnc(CCC3CCCCC3)o2)cc1 | 58.9%
